Provide the reported viability of each item.
- method_description: growth suppression of beta-catenin knockout HCT116, pilot screen, human colon tumor cells (AID 823);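 further: 0% = wells killed by 20 µM Hyamine and 100% = untreated DMSO cell wells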
- condition_description: CellTiter-Glo, 60 h, at 10 µM, hits give low values
Records with an inconclusive call do not appear.
Kindly answer with a numeric value in %, unit omitted.

Looking up `CCOc1ccc(N(CC(=O)N2CC=C(c3ccccc3)CC2)S(=O)(=O)c2c(C)noc2C)cc1` , I see its viability listed as 71.1

Looking up Cc1ccc(-c2nc(CS(=O)CC(=O)NC3CCCC3)c(C)o2)cc1 (stereo unspecified) , I see its viability listed as 92.9

Looking up `Cc1sc2ncn(CC(=O)NCc3ccccn3)c(=O)c2c1S(=O)(=O)N1CCOCC1` , I see its viability listed as 101

Looking up `Cc1[nH]c2ccccc2c1SCCN` , I see its viability listed as 73.9

Looking up `O=C(Nc1nnc(-c2ccc3c(c2)CCCC3)o1)C1CCCCC1` , I see its viability listed as 64.5

Looking up Cc1ccc(CCN2CC(C(=O)NCc3cccnc3)CC2=O)cc1 (stereo unspecified) , I see its viability listed as 104

Looking up `O=C(CSc1ccc2nnc(-c3ccc(Cl)cc3)n2n1)N1CCN(c2ccccc2)CC1` , I see its viability listed as 96.6

Looking up O=C1NC(c2ccco2)Nc2sc3c(c21)CCN(Cc1ccccc1)C3 (stereo unspecified) , I see its viability listed as 103

Looking up CCOC(=O)C1CCCCN1C(=O)CCc1c(C)nc2cc(-c3ccccc3)nn2c1C (stereo unspecified) , I see its viability listed as 52.9

Looking up Cc1c(NC(=O)C2CCCN2S(=O)(=O)c2ccccc2)c(=O)n(-c2ccccc2)n1C (stereo unspecified) , I see its viability listed as 97.3

Looking up `Cc1ccc2[nH]c(=O)c(-c3noc(C(C)C)n3)cc2c1` , I see its viability listed as 114

Looking up CCN(CC)c1ccc(NC(=O)C2CC3CCC2C3)cc1 (stereo unspecified) , I see its viability listed as 69.6

Looking up `Cc1cccn2cc(-c3ccc(F)cc3)nc12` , I see its viability listed as 87.2

Looking up `O=c1c2ccccc2nnn1CSc1nnc(-c2ccco2)o1` , I see its viability listed as 83.3

Looking up `Cc1ccc(-c2cc3c(nn2)-c2ccccc2C3=O)cc1` , I see its viability listed as 53.4

Looking up `CCOc1ccccc1Nc1nnc(C)c(=O)[nH]1` , I see its viability listed as 105

Looking up `COc1ccc(CNC(=O)CN(c2cc(C)cc(C)c2)S(=O)(=O)c2c(C)noc2C)cc1` , I see its viability listed as 97.1

Looking up Cc1onc(-c2ccccc2Cl)c1C(=O)NCC1CCCO1 (stereo unspecified) , I see its viability listed as 88.7

Looking up `CCCCn1nc(NC(=O)c2cccs2)c2cc3ccccc3nc21` , I see its viability listed as 54.6

Looking up `CCOCCCNC(=O)CN1C(=O)CSc2ccccc21` , I see its viability listed as 101

Looking up `Cc1ccc2c(c1)c1cccc3c1n2CCN3CCC(N)=O` , I see its viability listed as 87.4

Looking up `CCOc1ccc(C(=O)Nc2cc(=O)n(C)c(=O)n2C)cc1` , I see its viability listed as 101

Looking up `CC(C)Cc1nc(C(N)=O)c2[nH]c(=O)n(-c3ccc(F)cc3)c2n1` , I see its viability listed as 100

Looking up CCN1CCN(C(c2cccs2)C(C)NC(=O)C(C)C)CC1 (stereo unspecified) , I see its viability listed as 98

Looking up `C=CCn1c(N(C)C)nc2c1c(=O)[nH]c(=O)n2C` , I see its viability listed as 109

Looking up CCC1CCCCN1C(=O)CSc1nc(N)c(NC(=O)c2ccco2)c(=O)[nH]1 (stereo unspecified) , I see its viability listed as 106

Looking up `C=C(C)Cn1c(N2CCCC2)nc2c1c(=O)[nH]c(=O)n2C` , I see its viability listed as 108

Looking up `COc1ccc(Nc2nnc(Cc3ccc(Cl)cc3)c(=O)[nH]2)c(OC)c1` , I see its viability listed as 100

Looking up Cc1nc2ccc(S(=O)(=O)NC(C(=O)NCc3ccco3)C(C)C)cc2s1 (stereo unspecified) , I see its viability listed as 101

Looking up `CCOC(=O)CNC(=O)c1cn(CC(C)C)c(=O)c2cc(OC)c(OC)cc12` , I see its viability listed as 105

Looking up COc1cccc(CNC(=O)c2ccc(NC(=O)C3CCCO3)cc2)c1 (stereo unspecified) , I see its viability listed as 95.1

Looking up CCCc1ncc(C(O)c2cccc(OC)c2OC)n1C (stereo unspecified) , I see its viability listed as 95.9

Looking up `Cc1ccc2oc(=O)c3cc(C(=O)N4CCN(C(=O)c5ccco5)CC4)sc3c2c1` , I see its viability listed as 102

Looking up `Cc1cc(C)nc(-n2nc(C)cc2NC(=O)CN2CCC(C)CC2)n1` , I see its viability listed as 75.3

Looking up `COc1cccc(OCC(=O)N(Cc2nc(-c3ccc(Cl)cc3)no2)C(C)C)c1` , I see its viability listed as 91

Looking up CS(=O)(=O)c1ccc(C(=O)NC2CCOC2=O)cc1 (stereo unspecified) , I see its viability listed as 102

Looking up `COc1ccc(-c2nc(=S)[nH][nH]2)cc1` , I see its viability listed as 99

Looking up `NC(=O)c1ccc(N2CCCCC2)c(N2C(=O)CCC2=O)c1` , I see its viability listed as 102

Looking up `CCOc1ccc(NC(=O)CSc2nnc(Cc3cccn3C)n2-c2ccc(F)cc2)cc1` , I see its viability listed as 95.7

Looking up `COc1ccc(Cc2nnc(SC)[nH]c2=O)cc1OC` , I see its viability listed as 101

Looking up CCC(C)Sc1nc2c(c(=O)[nH]c(=O)n2C)n1Cc1ccccc1Cl (stereo unspecified) , I see its viability listed as 81.6

Looking up `Cn1c(=O)c2c(nc(NC3CCCCC3)n2Cc2ccccc2)n(C)c1=O` , I see its viability listed as 78.9

Looking up `CCN(CC)c1ccc(NC(=O)CSc2nc(C)cc(=O)[nH]2)cc1` , I see its viability listed as 95.7

Looking up `COc1cccc(-c2nn(C)c3sc(C(=O)N4CCOCC4)cc23)c1` , I see its viability listed as 97.5

Looking up `CCc1ccc2nc(NC3=NCN(CCOC)CN3)nc(C)c2c1` , I see its viability listed as 63

Looking up `COC(=O)c1ccc(NC(=O)c2cccc(OC)c2)cc1` , I see its viability listed as 69.9

###

- method_description: inhibitors of the yeast RAM network, pilot screen, dse1pr::URA3 reporter, 5-FOA selection (AID 869);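 further: 0% = DMSO wells with no growth and 100% = 10 µM 1-NA-PP1 with full growth; RAM network block rescues cells from 5-FOA so hits raise OD615 growth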
- condition_description: S. cerevisiae dse1pr::URA3 5-FOA growth, OD615, 2 d; at 10 µM; hits give high values; strain carries analog-sensitive mutant Cbk1 kinase
Provide the reported inhibition of each item.
Kindly answer with a numeric value in %, unit omitted.

Looking up `Cc1sc2ncnc(NCCCO)c2c1C` , I see its inhibition listed as 0.945

Looking up `Cc1cc(C(=O)N2CCN(S(C)(=O)=O)CC2)sc1-c1ccccc1` , I see its inhibition listed as 3.19

Looking up CCC(=O)Nc1c2c(nn1-c1ccc(OC)cc1)CS(=O)C2 (stereo unspecified) , I see its inhibition listed as 1.37

Looking up `Cn1c(CSc2nc3ccccc3s2)n[nH]c1=S` , I see its inhibition listed as 0.23

Looking up `CC(C)Oc1cc(O)c2c(=O)c(-c3ccc(O)cc3)coc2c1` , I see its inhibition listed as 0.605

Looking up `C=CCn1c(SCC(=O)N2CCOCC2)nc(O)c(Cc2ccccc2)c1=O` , I see its inhibition listed as 1.49

Looking up `O=C(c1ccc(CNc2c(N3CCOCC3)c(=O)c2=O)cc1)N1CC=C(c2ccccc2)CC1` , I see its inhibition listed as 2.02

Looking up `COC(=O)C1=C(C)N(C)C(C)=C(C(=O)OC)C1c1ccccc1C` , I see its inhibition listed as 0.365

Looking up `CCOC(=O)N1CCC(NC(=O)CN2C(=O)CSc3nc(C)cc(C)c32)CC1` , I see its inhibition listed as -0.65

Looking up `Cc1cc(Nc2cc(F)ccc2C)n2ncnc2n1` , I see its inhibition listed as 3.77

Looking up `O=C(c1oc(=O)c2ccccc2c1-c1ccccc1)N1CCN(C2CCCCC2)CC1` , I see its inhibition listed as 1.16

###

- method_description: Restrictive medium S. cerevisiae growth inhibition, OD615, pilot screen of yeast lifespan reduction project, restrictive growth control (AID 706);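 further: modified DeaD lifespan yeast strain shifted to restrictive glucose medium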
- condition_description: OD615, 48 h, at 10 µM, hits give high values
measure: growth inhibition (%)
Kindly answer with a numeric value in %, unit omitted.

Looking up CCn1ncc(C2=NOC(C(=O)Nc3c(C)n(C)n(-c4ccccc4)c3=O)C2)c1C (stereo not given) , I see its growth inhibition listed as 5.18

Looking up `CN(C)S(=O)(=O)c1ccc(C(=O)Nc2ccc(OCC(=O)N3CCOCC3)cc2)cc1` , I see its growth inhibition listed as -1.1

Looking up Cc1nc2ccc(S(=O)(=O)NC(C(=O)N3CCCCCC3)C(C)C)cc2s1 (stereo not given) , I see its growth inhibition listed as -4.58

Looking up Cc1ccc(N(CC(N)=O)C2SC(=O)N(C)C2=O)cc1 (stereo not given) , I see its growth inhibition listed as -7.83

Looking up `Cn1c(Cn2c(=O)sc3ccccc32)nnc1SCC(=O)Nc1cccc(Cl)c1` , I see its growth inhibition listed as -16.1
